Biological target: αSN (15 μM monomeric αSN doped with 5% αSN PFF seeds) (Homo sapiens, UniProt P37840)
Test: Seeded Thioflavin-T aggregation assay
Conditions: 15 μM αSN monomer + 5% PFF, 37 °C; max ThT intensity
pIC50: −log10 of the molar value. Structures can show the parent of a compound that is named as a salt.
observation.type: pIC50

>>> numeric_result("Nc1ccc(-c2nc3ccc(-c4nc5ccc(N)cc5[nH]4)cc3[nH]2)cc1")
6.03
>>> numeric_result("CN(C)[C@@H]1C(O)=C(C(N)=O)C(=O)[C@@]2(O)C(O)=C3C(=O)c4c(O)ccc(Cl)c4[C@@H](O)[C@H]3C[C@@H]12 [DEM, Demeclocycline HCl]")
6.00
>>> numeric_result("O=C(O)[C@H]1O[C@@H](Oc2cc3oc(-c4ccccc4)cc(=O)c3c(O)c2O)[C@H](O)[C@@H](O)[C@@H]1O")
6.41
>>> numeric_result("O=C(O[C@@H]1Cc2c(O)cc(O)cc2O[C@@H]1c1cc(O)c(O)c(O)c1)c1cc(O)c(O)c(O)c1")
5.96

---

Target: WT αSN oligomer (inter-protomeric) FRET biosensor in HEK293 cells (Homo sapiens, UniProt P37840)
Construct: In addition to full-length αSN fusion constructs, we observe both C-terminally and N-terminally truncated αSN species; expressed in transfected cells; host or cells: HEK293
Test: FLT dose response, WT oligomer (inter-protomeric) FRET biosensor
Assay type: cell-based
Settings: 1 nM to 50 μM
Structures can show the parent of a compound that is named as a salt.
observation.type: FLT trend in dose response

>>> result("CN(C)[C@@H]1C(O)=C(C(N)=O)C(=O)[C@@]2(O)C(O)=C3C(=O)c4c(O)ccc(Cl)c4[C@@H](O)[C@H]3C[C@@H]12 [DEM, Demeclocycline HCl]")
"reduced FLT"
>>> result("Nc1ccc(-c2nc3ccc(-c4nc5ccc(N)cc5[nH]4)cc3[nH]2)cc1")
"reduced FLT"
>>> result("COC(=O)C1=C(C)NC(C)=C([N+](=O)[O-])C1c1ccccc1C(F)(F)F (racemic) [BAY, (±)-Bay K 8644]")
"reduced FLT"

---

Biological target: αSN oligomers (Homo sapiens, UniProt P37840)
Construct: made in house; host or cells: Escherichia coli BL21(DE3), T7-7 plasmid
Experiment: ThT content (β-sheet) of αSN oligomers after oligomerization assay
Type: biochemical
Details: 70 μM compound (1:5 compound:monomer), 12 h oligomerization; vs DMSO
Structures can show the parent of a compound that is named as a salt.
observation.type: ThT signal of αSN oligomers

>>> result("COC(=O)C1=C(C)NC(C)=C([N+](=O)[O-])C1c1ccccc1C(F)(F)F (racemic) [BAY, (±)-Bay K 8644]")
"increased the ThT signal"
>>> result("CN(C)[C@@H]1C(O)=C(C(N)=O)C(=O)[C@@]2(O)C(O)=C3C(=O)c4c(O)ccc(Cl)c4[C@@H](O)[C@H]3C[C@@H]12 [DEM, Demeclocycline HCl]")
"increased the ThT signal"

---

Test system: SH-SY5Y cells overexpressing unlabeled wild-type (WT) αSN
Assay: CytoTox-Glo cytotoxicity assay: rescue of αSN-induced cytotoxicity
Type: cell-based, human
Conditions: Homo sapiens, SH-SY5Y, 72-h transfection, 48-h exposure to compound; seven-point CRC; read-out: EC50, protection of SH-SY5Y cells from αSN-induced death
Structures can show the parent of a compound that is named as a salt.
Attribute: EC50
observation.type: EC50 (nM)

>>> numeric_result("CN(C)[C@@H]1C(O)=C(C(N)=O)C(=O)[C@@]2(O)C(O)=C3C(=O)c4c(O)ccc(Cl)c4[C@@H](O)[C@H]3C[C@@H]12 [DEM, Demeclocycline HCl]")
65
>>> numeric_result("Brc1cccc(-c2cc(-c3ccc4c(c3)OCO4)[nH]n2)c1 [Anle138b]")
900
